The reported measurements were obtained from patent US20250051327A1.

# System: IL-2 secretion by human effector memory T cells (TEM)
# experiment-notes: Effector memory T cells IL-2 release assay
# Type: cell-based
# stated-conditions: T-cell; human CD4+ effector memory T cells, CD3/CD28 bead stimulation, 24 h; read-out: CD4TC IL2 IC50
So I've got a bunch of molecules here, and I need their pIC50 values.
Please keep in mind that pIC50 is minus log10 of the molar concentration; only the number is needed.

Field request: pIC50 | item: COc1ccc2ncc(Nc3ccc([C@H](N(C)C(=O)C4CCS(=O)(=O)CC4)C(F)(F)F)cc3)c([C@H]3CCCO3)c2n1 (relative stereo) [CPD0074043] 7.10

Moving on to the next molecule: CN(C(=O)C1CCS(=O)(=O)CC1)[C@@H](c1ccc(N2CC[C@]3(CCOC3)c3c2cnc2cc(Cl)nn32)cc1)C(F)(F)F [CPD0073763] 6.96

Moving on to the next molecule: CN(C(=O)[C@H]1CC[S@@](=N)(=O)CC1)[C@@H](c1ccc(N2CCC(C)(C)c3c2cnc2cc(Cl)nn32)cc1)C(F)(F)F (relative stereo) [CPD0072784] 7.25

Moving on to the next molecule: COc1ccc2ncc(Nc3ccc([C@H](N(C)C(=O)[C@H]4CC[S@@](=N)(=O)CC4)C(F)(F)F)cc3)c([C@@H](C)OC)c2n1 [CPD0075564] 6.76

Moving on to the next molecule: C[C@@H]1CCN(c2ccc([C@H](N(C)C(=O)[C@@H]3CCC(=O)NC3)C(F)(F)F)cc2)c2cnc3cc(Cl)nn3c21 (relative stereo) [CPD0074561] 7.04

Moving on to the next molecule: C[C@@H]1CCN(c2ccc([C@H](N(C)C(=O)[C@H]3CCC(=O)NC3)C(F)(F)F)cc2)c2cnc3cc(Cl)nn3c21 (relative stereo) [CPD0074549] 6.85

Moving on to the next molecule: CO[C@H](C)c1c(Nc2ccc([C@H](N(C)C(=O)C3CCS(=O)(=O)CC3)C(F)(F)F)cc2)cnn2cc(Cl)nc12 [CPD0072850] 6.94

Moving on to the next molecule: CN(C(=O)CC1CCCS1(=O)=O)[C@@H](c1ccc(N2CCCc3c2cnc2cc(Cl)nn32)cc1)C(F)(F)F (stereo partly shown) [CPD0021934] 6.23

Moving on to the next molecule: CN(C(=O)C1CCS(=O)(=O)CC1)[C@@H](c1ccc(N2CCCc3c2cnc2cc(Cl)nn32)cc1)C(C)(F)F [CPD0072803] 5.72

Moving on to the next molecule: CN(C(=O)[C@H]1C[C@@](C)(O)C1)[C@@H](c1ccc(N2CCCc3c2cnc2cc(Cl)nn32)cc1)C(F)(F)F [CPD0072437] 6.75

Moving on to the next molecule: COc1ccc2ncc(Nc3ccc([C@H](N(C)C(=O)[C@H]4CNC(=O)C4)C(F)(F)F)cc3)c([C@H](C)OC)c2n1 (relative stereo) [CPD0074562] 7.17

Moving on to the next molecule: CN(C(=O)Cc1ccccc1O)[C@@H](c1ccc(N2CCCc3c2cnc2cc(Cl)nn32)cc1)C(F)(F)F [CPD0019350] 6.99

Moving on to the next molecule: CN(C(=O)C1CCS(=O)(=O)CC1)[C@@H](c1ccc(N2CCC3(CC3)c3c2cnc2cc(Cl)nn32)cc1)C(F)(F)F [CPD0019590] 7.43
